biological target: NS3 (Hepatitis C virus, UniProt A3EZJ3); assay: PubChem AID 2173; design: species or system Hepacivirus hominis
Sequence (A3EZJ3 whole entry): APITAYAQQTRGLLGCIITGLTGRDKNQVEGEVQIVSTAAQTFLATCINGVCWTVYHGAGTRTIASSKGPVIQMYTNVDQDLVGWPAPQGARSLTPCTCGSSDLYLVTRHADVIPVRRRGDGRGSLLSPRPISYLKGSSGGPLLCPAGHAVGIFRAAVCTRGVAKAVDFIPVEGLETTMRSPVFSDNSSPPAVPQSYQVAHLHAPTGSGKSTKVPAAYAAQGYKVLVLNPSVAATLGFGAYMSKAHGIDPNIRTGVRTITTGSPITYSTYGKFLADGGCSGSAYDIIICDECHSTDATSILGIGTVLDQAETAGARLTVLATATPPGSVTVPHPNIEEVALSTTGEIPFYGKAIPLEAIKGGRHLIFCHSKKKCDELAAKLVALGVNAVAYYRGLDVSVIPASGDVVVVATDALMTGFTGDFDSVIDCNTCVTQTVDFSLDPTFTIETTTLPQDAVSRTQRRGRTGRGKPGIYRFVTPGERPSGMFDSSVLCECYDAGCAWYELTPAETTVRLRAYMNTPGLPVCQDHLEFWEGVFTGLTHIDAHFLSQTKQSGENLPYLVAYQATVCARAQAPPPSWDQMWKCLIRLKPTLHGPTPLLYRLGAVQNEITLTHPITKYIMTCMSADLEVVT
Calls of active or inactive are those of the source.
value-type: IC50

Ask: GET /values?readout=IC50&item= Cc1ccc(/C=C/C(=O)Nc2ccc([N+](=O)[O-])c(NC(=O)/C=C/c3ccc(C)o3)c2)o1
Reply: 41.3 µM (not active)

Ask: GET /values?readout=IC50&item= CCN(CC)S(=O)(=O)c1cccc(C(=O)N/N=C/c2ccc(O)c(O)c2O)c1
Reply: 5.31 µM (active)

Ask: GET /values?readout=IC50&item= Cc1cccc(N2C(=O)C(O)=C(C(=O)c3cccs3)C2c2cccc(Oc3ccccc3)c2)n1 (centres undefined)
Reply: 3.02 µM (active)

Ask: GET /values?readout=IC50&item= Cc1ccc(N2C(=O)NC(=O)/C(=C\C=C\c3ccco3)C2=O)cc1C
Reply: 14.4 µM (not active)

----------
Listed below: EC50 values for each entry.
Molecular target: Protein RecA (Mycobacterium tuberculosis)
Sequence (P9WHJ3 whole entry): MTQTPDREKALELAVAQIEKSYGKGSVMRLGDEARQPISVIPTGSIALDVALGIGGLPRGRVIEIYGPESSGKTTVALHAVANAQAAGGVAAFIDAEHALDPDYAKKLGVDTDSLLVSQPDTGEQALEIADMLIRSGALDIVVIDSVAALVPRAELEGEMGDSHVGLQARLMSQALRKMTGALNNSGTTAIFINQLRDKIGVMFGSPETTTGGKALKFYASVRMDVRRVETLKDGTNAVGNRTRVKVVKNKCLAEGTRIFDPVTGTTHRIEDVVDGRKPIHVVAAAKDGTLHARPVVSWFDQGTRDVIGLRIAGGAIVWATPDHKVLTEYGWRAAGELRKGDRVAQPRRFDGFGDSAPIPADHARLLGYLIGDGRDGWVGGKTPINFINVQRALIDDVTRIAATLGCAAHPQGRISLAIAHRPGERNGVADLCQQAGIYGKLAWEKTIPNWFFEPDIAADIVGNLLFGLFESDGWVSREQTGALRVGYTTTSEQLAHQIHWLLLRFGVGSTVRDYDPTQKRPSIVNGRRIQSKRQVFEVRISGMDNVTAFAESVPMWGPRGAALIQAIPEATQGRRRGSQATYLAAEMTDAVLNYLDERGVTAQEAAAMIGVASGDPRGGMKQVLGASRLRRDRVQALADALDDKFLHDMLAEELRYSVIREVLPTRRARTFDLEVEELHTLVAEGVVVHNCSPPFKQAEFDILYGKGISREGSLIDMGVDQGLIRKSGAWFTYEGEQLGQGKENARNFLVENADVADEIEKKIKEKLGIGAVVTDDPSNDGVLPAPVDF
Assay: Fluorescence Cell-Free Homogeneous Dose Retest to Identify Inhibitors of RecA-Intein Splicing Activity. [Related pubchem assays (depositor defined):AID2097, AID2223, AID489010, AID492950]
Assay type: functional
Active and inactive are the calls of the source.

Ask: GET /values?readout=EC50&item= Cc1ccc(C2=NN(C(=O)CCl)C(c3ccco3)C2)o1 (stereo not given)
Reply: 5.58 µM (active)

Ask: GET /values?readout=EC50&item= CCc1ccc(N2C(=O)C(Cl)=C(N3CCOCC3)C2=O)cc1
Reply: 0.34 µM (active)

----------
Listed below: IC50 values for each entry.
molecular target: Mannose-6-phosphate isomerase (Homo sapiens); assay: MPI inhibition at elevated mannose 6-phosphate – biochemical, fluorescence intensity, high mannose 6-phosphate, primary screen (AID 1220)
Sequence (P34949 whole entry): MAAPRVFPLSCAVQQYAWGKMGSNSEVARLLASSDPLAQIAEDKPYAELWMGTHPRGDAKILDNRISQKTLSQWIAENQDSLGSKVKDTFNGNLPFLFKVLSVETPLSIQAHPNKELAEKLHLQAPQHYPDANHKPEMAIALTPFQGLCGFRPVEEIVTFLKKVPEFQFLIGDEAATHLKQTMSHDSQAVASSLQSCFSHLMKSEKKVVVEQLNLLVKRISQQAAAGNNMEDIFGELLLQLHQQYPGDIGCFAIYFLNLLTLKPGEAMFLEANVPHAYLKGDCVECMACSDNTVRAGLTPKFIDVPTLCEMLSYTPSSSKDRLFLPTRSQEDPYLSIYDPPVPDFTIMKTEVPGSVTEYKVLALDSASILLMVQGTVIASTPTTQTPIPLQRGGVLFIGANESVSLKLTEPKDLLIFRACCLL
Active and inactive are the calls of the source.

Record excerpt, results attached:
Oc1ccccc1Oc1c(F)c(F)nc(N2CCCC2)c1F : > 50 µM (not active)
CCN(CC)S(=O)(=O)c1cccc(C(=O)N/N=C/c2ccc(O)c(O)c2O)c1 : 5.36 µM (active)

Ask: GET /values?readout=IC50&item= Oc1ccc(CN2CCCc3ccccc32)c2cccnc12
Reply: > 50 µM (not active)

Ask: GET /values?readout=IC50&item= c1ccc2[nH]c(SN3CCOCC3)nc2c1
Reply: > 50 µM (not active)

----------
target: Heat shock factor protein 1 (Mus musculus); test: decrease of HSF1-responsive luciferase luminescence – cell-based, NIH3T3, dose retest, confirmation (AID 2382); type: functional;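 further: NIH3T3 fibroblasts with HSF1-driven luciferase reporter stressed by proteasome inhibitor MG132; luminescence from HSF1-driven luciferase expression after 8 hours of MG132 stress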
Sequence (P38532 whole entry): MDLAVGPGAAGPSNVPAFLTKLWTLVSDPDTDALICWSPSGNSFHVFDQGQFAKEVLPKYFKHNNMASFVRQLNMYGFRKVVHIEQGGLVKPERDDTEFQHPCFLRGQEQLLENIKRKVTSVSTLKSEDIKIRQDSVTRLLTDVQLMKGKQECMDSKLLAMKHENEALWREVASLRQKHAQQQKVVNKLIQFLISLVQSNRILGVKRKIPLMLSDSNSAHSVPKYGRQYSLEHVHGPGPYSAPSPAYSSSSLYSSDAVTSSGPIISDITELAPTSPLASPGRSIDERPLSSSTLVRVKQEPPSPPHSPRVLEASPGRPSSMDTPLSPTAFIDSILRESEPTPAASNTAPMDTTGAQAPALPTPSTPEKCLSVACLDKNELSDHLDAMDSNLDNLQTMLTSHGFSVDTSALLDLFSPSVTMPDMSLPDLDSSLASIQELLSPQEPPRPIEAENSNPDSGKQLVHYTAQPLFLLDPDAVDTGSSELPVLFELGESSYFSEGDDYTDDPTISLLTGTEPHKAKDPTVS
The source made the active and inactive calls.
Listed below: EC50 values for each entry.

Record excerpt, results attached:
CC(C)(C)n1ncc2c(=O)n(CC(=O)OCc3ccccc3)cnc21 : 23.5 µM (active)
COc1ccc(CNC(=O)c2sc(=S)n(-c3ccccc3)c2N)cc1 : > 195 µM (not active)
Cc1c(Cl)cccc1NC(=O)c1cccc(OC(F)F)c1 : > 195 µM (not active)
O=[N+]([O-])c1ccc(N2CCNCC2)cc1NCC1CCCO1 (centres undefined) : > 195 µM (not active)
O=c1c2cccnc2n(-c2ccccc2)n1Cc1c(Cl)cccc1Cl : > 195 µM (not active)
COc1ccc(-c2oc3ccccc3c2C(=O)Oc2ccccc2)cc1 : 152 µM (active)
C=CCn1/c(=N/C(=O)C2CC2)sc2cc(NC(C)=O)ccc21 : > 195 µM (not active)
Cc1cc(C)cc(OCC(O)CN2CCN(C(=O)c3ccco3)CC2)c1 (centres undefined) : > 195 µM (not active)

Ask: GET /values?readout=EC50&item= O=[N+]([O-])c1ccc(NCCOc2ccccc2Cl)nc1
Reply: > 195 µM (not active)

----------
Reported AC50, Cytochrome P450 2C9 (Homo sapiens).

Record excerpt, results attached:
CC(C)NC(=O)N1CCN(c2ccncc2S(=O)(=O)N2CCOCC2)CC1 : 35.5 µM (inconclusive)
C[C@@]12CC[C@@H]3[C@@H](CC[C@H]4C[C@@H](O)CC[C@]43C)[C@H]1CC[C@@H]2c1cc(C(F)(F)F)[nH]n1 : 7.94 µM (inconclusive)
CN1/C(=C/C=C(/C#N)C(N)=O)C(C)(C)c2ccccc21 : 28.2 µM (inconclusive)
Cc1ccc2nc(O)c(N=C(N)S)nc2c1 : 10 µM (inconclusive)
Cc1nn(C(C)C(=O)Nc2sc3c(c2C#N)CCCC3)c(C)c1[N+](=O)[O-] (stereo not given) : 3.98 µM (inconclusive)
O=C(NC1CCN(Cc2ccccc2)CC1)c1ccc(I)cc1 : 39.8 µM (inconclusive)

Ask: Form: Entry = CCCCCCC[n+]1ccc(-c2cc[n+](CCCCCCC)cc2)cc1 | System = Cytochrome P450 2C9 (Homo sapiens) | AC50 = ____
Reply: 39.8 µM (inconclusive)

Ask: Form: Entry = Cc1ccc(CNC(=O)C2(NC(=O)Nc3ccc(C)cc3)CCCCC2)cc1 | System = Cytochrome P450 2C9 (Homo sapiens) | AC50 = ____
Reply: 3.55 µM (inconclusive)

Ask: Form: Entry = O=c1c(CCc2ccccc2)nc2cncnc2n1C1CC1 | System = Cytochrome P450 2C9 (Homo sapiens) | AC50 = ____
Reply: 25.1 µM (inconclusive)

Ask: Form: Entry = CC(Oc1ccc(Cl)cc1Cl)C(=O)/C=C/N(C)C (stereo not given) | System = Cytochrome P450 2C9 (Homo sapiens) | AC50 = ____
Reply: 12.6 µM (inconclusive)

----------
molecular target: Sentrin-specific protease 7 (Homo sapiens, UniProt Q9BQF6); experiment: inhibition of human SENP7 cleavage activity – biochemical, luminescence, SAR follow-up (AID 504497); type: functional
Sequence (Q9BQF6 whole entry): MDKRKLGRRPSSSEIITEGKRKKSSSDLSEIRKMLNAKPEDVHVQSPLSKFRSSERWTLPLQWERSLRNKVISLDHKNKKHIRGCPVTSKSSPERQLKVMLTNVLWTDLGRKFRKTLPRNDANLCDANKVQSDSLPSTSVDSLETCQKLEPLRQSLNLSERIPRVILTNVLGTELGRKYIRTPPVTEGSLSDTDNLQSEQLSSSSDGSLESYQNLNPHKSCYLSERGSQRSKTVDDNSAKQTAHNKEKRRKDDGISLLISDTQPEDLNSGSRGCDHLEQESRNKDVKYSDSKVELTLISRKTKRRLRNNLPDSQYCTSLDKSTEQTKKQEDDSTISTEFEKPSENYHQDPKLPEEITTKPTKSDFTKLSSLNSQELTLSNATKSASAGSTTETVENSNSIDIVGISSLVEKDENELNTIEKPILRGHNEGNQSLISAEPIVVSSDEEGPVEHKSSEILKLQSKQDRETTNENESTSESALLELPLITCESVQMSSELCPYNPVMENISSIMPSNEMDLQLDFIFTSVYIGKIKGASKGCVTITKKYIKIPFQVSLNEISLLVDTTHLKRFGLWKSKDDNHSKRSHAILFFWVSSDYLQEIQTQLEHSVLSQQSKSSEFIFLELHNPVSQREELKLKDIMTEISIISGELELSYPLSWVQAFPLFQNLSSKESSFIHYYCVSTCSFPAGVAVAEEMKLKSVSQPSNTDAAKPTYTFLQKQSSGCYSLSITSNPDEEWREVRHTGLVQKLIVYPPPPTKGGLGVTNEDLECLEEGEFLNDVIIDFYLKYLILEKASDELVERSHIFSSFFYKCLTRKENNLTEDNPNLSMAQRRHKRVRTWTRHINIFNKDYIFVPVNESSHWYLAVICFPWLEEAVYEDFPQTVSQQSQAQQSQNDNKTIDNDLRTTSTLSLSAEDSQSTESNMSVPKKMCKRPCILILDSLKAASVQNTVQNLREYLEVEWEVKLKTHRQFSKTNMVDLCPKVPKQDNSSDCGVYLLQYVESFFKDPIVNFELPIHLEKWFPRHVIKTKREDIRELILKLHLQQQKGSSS
Calls of active or inactive are those of the source.
Form entry, call: pick from active, inactive

// below: answered molecules
Fc1cc(C(F)(F)F)ccc1-c1nc(/C=C/c2ccccc2)no1 : inactive
CCc1ccc2oc(-c3ccc(NC(C)=O)cc3)nc2c1 : active

Ask: Can you look up the reported call for O=C(/C=C/c1ccc(OC2CSC2)cc1)c1ccc(Cl)cc1 for me?
Reply: inactive

Ask: Can you look up the reported call for O=C(Nc1nc2ccc(NC(=O)c3n[nH]c4c3CCc3ccccc3-4)cc2s1)c1ccccc1 for me?
Reply: inactive

----------
target: Caspase-3 (Homo sapiens); experiment: SAR Analysis of small molecule inhibitors of Sentrin-specific proteases (SENPs) using a Caspase-3 Selectivity assay. [Related pubchem assays (depositor defined):AID2540, AID2599, AID434973, AID489001]; type: functional
Activity calls are given as the source filed them.
Listed below: IC50 values for each entry.

Record excerpt, results attached:
CCc1ccc2oc(-c3ccc(NC(C)=O)cc3)nc2c1 : 7.01 µM (active)
O=C(Nc1nc2ccc(NC(=O)c3n[nH]c4c3CCc3ccccc3-4)cc2s1)c1ccccc1 : > 99 µM (inactive)
O=C(/C=C/c1ccc(OC2CSC2)cc1)c1ccc(Cl)cc1 : > 99 µM (inactive)

Consider now this further compound.
Ask: GET /values?readout=IC50&item= Fc1cc(C(F)(F)F)ccc1-c1nc(/C=C/c2ccccc2)no1
Reply: > 99 µM (inactive)

----------
experiment: NIH3T3 cell viability loss – ATP luminescence, mouse fibroblasts, counter-screen, dose response (AID 2010); type: functional, cell-based;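 further: cells exposed to compound for about 90 hours before reading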
Activity calls are given as the source filed them.
value-type: EC50

Cc1ccc(NC(=O)NCC2CCN(Cc3cccc(Cl)c3)CC2)cc1Cl : > 60 µM (not active)
Cc1cccc(S(=O)(=O)c2c(N)n(/N=C/c3ccco3)c3nc4ccccc4nc23)c1 : 12 µM (active)
O=C(NC(=S)NCc1cccnc1)c1cccc2ccccc12 : > 60 µM (not active)
Cc1ccc(C(=O)O/N=C/c2c(N3CCOCC3)n(C)c3ccccc23)cc1 : 3.44 µM (active)

Ask: GET /values?readout=EC50&item= Cc1[nH]n(C(C)(C)C)c(=O)c1Sc1ccc(Cl)cc1
Reply: > 60 µM (not active)

Ask: GET /values?readout=EC50&item= Cc1ccc(C(C)C)c(OCc2n[n+](CC(=O)c3ccc(Cl)cc3)c3n2CCCCC3)c1
Reply: > 60 µM (not active)
